- target_of_assay: CIC-1 channels (Rattus norvegicus, UniProt P35524)
- measurement_description: Electrophysiological measurement of compound inhibition of CIC-1 (Gm) in rat soleus muscle fibres: EC50 (Table 7)
# thresholds on EC50 define classes: band 1 = under 6 µM, band 2 = from 6 µM up to 8 µM, band 3 = 8 µM and over

Consider the following illustrative entries.
[
  {
    "chemical_smiles": "C[C@H](Oc1ccc(Br)cc1-c1cocn1)C(=O)O",
    "category": "band 1"
  },
  {
    "chemical_smiles": "CC(C)[C@H](Oc1ccc(Br)cc1-c1ccon1)C(=O)O",
    "category": "band 3"
  },
  {
    "chemical_smiles": "O=C(O)[C@H](CC1CC1)Oc1ccc(Br)cc1-c1ccon1",
    "category": "band 1"
  },
  {
    "chemical_smiles": "C[C@H](Oc1ccc(Cl)cc1-c1csnn1)C(=O)O",
    "category": "band 3"
  },
  {
    "chemical_smiles": "O=C(O)[C@H](CF)Oc1cc(F)c(Cl)cc1-c1ccon1",
    "category": "band 2"
  }
]

Ask | Textbook exercise: identify the category of the compound given here, C[C@@H](Oc1ccc(Br)cc1-c1ccno1)C(=O)O , according to its measured value.
Reply | band 3

Ask | Textbook exercise: identify the category of the compound given here, C[C@H](Oc1ccc(Br)cc1-c1cc(C2CC2)on1)C(=O)O , according to its measured value.
Reply | band 3

Ask | Textbook exercise: identify the category of the compound given here, CC[C@H](Oc1ccc(Br)cc1-c1ccno1)C(=O)O , according to its measured value.
Reply | band 3

Ask | Textbook exercise: identify the category of the compound given here, C[C@H](Oc1ccc(Br)cc1-c1csnn1)C(=O)O , according to its measured value.
Reply | band 1

Ask | Textbook exercise: identify the category of the compound given here, C[C@H](Oc1ccc(Br)cc1-c1ccon1)C(=O)O , according to its measured value.
Reply | band 1

Ask | Textbook exercise: identify the category of the compound given here, C[C@H](Oc1ccc(Br)cc1-c1ccno1)C(=O)O , according to its measured value.
Reply | band 2

Ask | Textbook exercise: identify the category of the compound given here, O=C(O)[C@H](CF)Oc1cc(F)c(Br)cc1-c1ccon1 , according to its measured value.
Reply | band 3

Ask | Textbook exercise: identify the category of the compound given here, O=C(O)[C@H](CF)Oc1ccc(Cl)cc1-c1ccon1 , according to its measured value.
Reply | band 1

----------
- target_of_assay: CIC-1 channels (Rattus norvegicus, UniProt P35524)
- Sequence (P35524 1-994): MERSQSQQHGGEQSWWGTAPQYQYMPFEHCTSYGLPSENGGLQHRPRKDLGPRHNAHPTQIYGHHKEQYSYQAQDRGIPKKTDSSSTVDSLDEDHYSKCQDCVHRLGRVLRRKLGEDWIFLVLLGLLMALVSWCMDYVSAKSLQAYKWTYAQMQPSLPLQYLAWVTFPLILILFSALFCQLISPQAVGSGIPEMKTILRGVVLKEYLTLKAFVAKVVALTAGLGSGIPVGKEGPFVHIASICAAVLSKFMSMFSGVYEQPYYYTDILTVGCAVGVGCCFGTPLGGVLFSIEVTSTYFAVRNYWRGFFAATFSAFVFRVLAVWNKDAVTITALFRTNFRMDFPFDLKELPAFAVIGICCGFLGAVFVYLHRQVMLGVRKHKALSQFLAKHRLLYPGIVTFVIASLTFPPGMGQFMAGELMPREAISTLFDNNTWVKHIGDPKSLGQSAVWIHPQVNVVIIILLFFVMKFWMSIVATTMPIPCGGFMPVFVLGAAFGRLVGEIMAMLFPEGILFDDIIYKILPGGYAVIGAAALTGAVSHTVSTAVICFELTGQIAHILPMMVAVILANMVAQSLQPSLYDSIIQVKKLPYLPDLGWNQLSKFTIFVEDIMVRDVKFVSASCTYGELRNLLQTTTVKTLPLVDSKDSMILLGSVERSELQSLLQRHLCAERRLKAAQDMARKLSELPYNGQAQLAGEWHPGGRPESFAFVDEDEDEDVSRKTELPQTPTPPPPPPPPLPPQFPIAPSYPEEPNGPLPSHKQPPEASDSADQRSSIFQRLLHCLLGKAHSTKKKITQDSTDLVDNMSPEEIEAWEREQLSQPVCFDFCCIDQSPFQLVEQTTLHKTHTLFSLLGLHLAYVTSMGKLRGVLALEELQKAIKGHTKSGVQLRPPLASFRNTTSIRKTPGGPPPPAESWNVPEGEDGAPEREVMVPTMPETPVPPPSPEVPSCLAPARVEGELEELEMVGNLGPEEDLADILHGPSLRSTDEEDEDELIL
- measurement_description: Electrophysiological measurement of compound inhibition of CIC-1 (Gm) in rat soleus muscle fibres: EC50 (Table 7)
# maps each entry to its pEC50
# pEC50 = -log10(concentration in molar units)

Worked examples follow.
[
  {
    "chemical_smiles": "O=C(O)[C@H](CC1CC1)Oc1ccc(Cl)cc1-c1ccon1",
    "pEC50": 5.37
  },
  {
    "chemical_smiles": "O=C(O)[C@H](CF)Oc1ccc(Br)cc1-c1ccon1",
    "pEC50": 5.48
  },
  {
    "chemical_smiles": "C[C@H](Oc1ccc(Cl)cc1-c1ccno1)C(=O)O",
    "pEC50": 5.44
  }
]

Next up:
Ask | Provide only the value of recorded pEC50 for C[C@H](Oc1ccc(Cl)cc1-c1ccon1)C(=O)O
Reply | 5.70

----------
- Test system: rat soleus muscles
- measurement_description: Recovery of force in isolated rat soleus nerve-muscle preparations after 115 nM tubocurarine, 50 μM compound (Table 8)
- condition_notes: 40 mins exposure
- Experimental: Force traces from a representative muscle stimulated to contract in 1) control condition before addition of neuromuscular blocking agent, 2) the force response to stimulation after 90 minutes incubation with Tubocurarine. […] The traces presented in FIG. 12A (1, 2, 3), correspond to the dotted lines in FIG. 12B, respectively. Recovery of force is quantified as the percentage of the force prior to tubocurarine that is recovered by the compound. […]
Lab note: cut-off is 20%. Strictly less in Point increase (%) of initial force that was restored is T. Exactly 20% or more is F.

[
  {
    "chemical_smiles": "O=C(O)COc1ccc(Br)cc1-c1ccon1",
    "target_of_assay": "rat soleus muscles",
    "category": "F"
  },
  {
    "chemical_smiles": "C[C@@H](Oc1ccc(Br)cc1-c1ccno1)C(=O)O",
    "target_of_assay": "rat soleus muscles",
    "category": "T"
  },
  {
    "chemical_smiles": "C[C@H](Oc1ccc(Br)cc1-c1cc(C2CC2)on1)C(=O)O",
    "target_of_assay": "rat soleus muscles",
    "category": "T"
  },
  {
    "chemical_smiles": "C[C@H](Oc1ccc(Br)cc1-c1ccno1)C(=O)O",
    "target_of_assay": "rat soleus muscles",
    "category": "F"
  }
]

Ask | Hi there! Is Point increase (%) of initial force that was restored for O=C(O)COc1ccc(Cl)cc1-c1ccno1 below 20%, do you know?
Reply | T

Ask | Hi there! Is Point increase (%) of initial force that was restored for O=C(O)[C@H](CC1CC1)Oc1ccc(Cl)cc1-c1ccon1 below 20%, do you know?
Reply | F

Ask | Hi there! Is Point increase (%) of initial force that was restored for O=C(O)[C@H](CF)Oc1cc(F)c(Br)cc1-c1ccon1 below 20%, do you know?
Reply | F

Ask | Hi there! Is Point increase (%) of initial force that was restored for CC[C@H](Oc1ccc(Br)cc1-c1ccno1)C(=O)O below 20%, do you know?
Reply | T

Ask | Hi there! Is Point increase (%) of initial force that was restored for O=C(O)COc1ccc(Br)cc1-c1csnn1 below 20%, do you know?
Reply | T

Ask | Hi there! Is Point increase (%) of initial force that was restored for O=C(O)[C@H](CF)Oc1ccc(Br)cc1-c1ccon1 below 20%, do you know?
Reply | F

Ask | Hi there! Is Point increase (%) of initial force that was restored for CCOC[C@H](Oc1ccc(Br)cc1-c1ccon1)C(=O)O below 20%, do you know?
Reply | F

Ask | Hi there! Is Point increase (%) of initial force that was restored for C[C@H](Oc1ccc(Cl)cc1-c1csnn1)C(=O)O below 20%, do you know?
Reply | T

Ask | Hi there! Is Point increase (%) of initial force that was restored for O=C(O)[C@H](CC1CC1)Oc1ccc(Br)cc1-c1ccon1 below 20%, do you know?
Reply | F

Ask | Hi there! Is Point increase (%) of initial force that was restored for C[C@H](Oc1ccc(Br)cc1-c1ccon1)C(=O)O below 20%, do you know?
Reply | F

Ask | Hi there! Is Point increase (%) of initial force that was restored for O=C(O)[C@H](CF)Oc1ccc(Cl)cc1-c1ccon1 below 20%, do you know?
Reply | F

Ask | Hi there! Is Point increase (%) of initial force that was restored for O=C(O)[C@H](CC1CCC1)Oc1ccc(Br)cc1-c1ccon1 below 20%, do you know?
Reply | T

Ask | Hi there! Is Point increase (%) of initial force that was restored for CC[C@H](Oc1ccc(Br)cc1-c1csnn1)C(=O)O below 20%, do you know?
Reply | T

Ask | Hi there! Is Point increase (%) of initial force that was restored for CC[C@H](Oc1ccc(Cl)cc1-c1ccon1)C(=O)O below 20%, do you know?
Reply | F
